Reported values of Emax for individual entries
target: hSSTR2 (Homo sapiens (Human)); test: Intracellular calcium mobilization assay (FLIPR Calcium 4), hSSTR2; type: cell-based; details: read-out: hSSTR2 % Emax ± SEM;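 also: agonist activity read as intracellular calcium rise in cells expressing human SSTR2, loaded with a calcium-sensitive dye for 60 min at 37 °C, measured by FLIPR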
Sequence (P30874 whole entry): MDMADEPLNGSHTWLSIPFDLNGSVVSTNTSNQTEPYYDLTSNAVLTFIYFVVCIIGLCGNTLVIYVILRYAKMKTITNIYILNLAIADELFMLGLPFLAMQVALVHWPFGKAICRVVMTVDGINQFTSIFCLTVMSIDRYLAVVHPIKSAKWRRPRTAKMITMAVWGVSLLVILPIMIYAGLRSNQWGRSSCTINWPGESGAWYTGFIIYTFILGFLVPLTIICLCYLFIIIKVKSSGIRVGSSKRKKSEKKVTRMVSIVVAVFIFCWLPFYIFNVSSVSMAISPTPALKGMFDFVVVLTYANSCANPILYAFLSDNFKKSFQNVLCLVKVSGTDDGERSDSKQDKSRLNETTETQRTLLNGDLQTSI
Numbered stars: 1 amine (or outer) side, 2 acyl side, 3 side chain; on linkers, the order of the positions; unused ones are H or OH. Bridge positions count the residues as written; N and C are the ends. Square brackets hold non-standard residues; d marks the D form. Peptide text beside a SMILES is read from it. X1 = CN1C[C@H](CSCCN(CCSC[C@@H]2C[C@@H]3c4cccc5[nH]cc(c45)C[C@H]3N(C)C2)[C@H](CCCCN[*:2])C(=O)[*:1])C[C@@H]2c3cccc4[nH]cc(c34)C[C@H]21
Only the number, expressed in %, is required.

Previously resolved entries follow.
C[C@@H](O)[C@@H]1NC(=O)[C@H](CCCCN)NC(=O)[C@@H](Cc2c[nH]c3ccccc23)NC(=O)[C@H](Cc2ccccc2)NC(=O)[C@H](Cc2ccccc2)NC(=O)[C@H](CCCNC(=N)N)NC(=O)[C@H](NCCC[C@@H]2C[C@@H]3c4cccc5[nH]cc(c45)C[C@H]3N(C)C2)CCCCNC(=O)[C@H](Cc2ccc(F)cc2)NC1=O = 98.7
C[C@@H](O)[C@@H]1NC(=O)[C@H](CCCCN)NC(=O)[C@@H](Cc2c[nH]c3ccccc23)NC(=O)[C@H](Cc2ccccc2)NC(=O)[C@H](Cc2ccccc2)NC(=O)[C@H](CCCNC(=N)N)NC(=O)[C@H](NCCSC[C@@H]2C[C@@H]3c4cccc5[nH]cc(c45)C[C@H]3N(C)C2)CCCCNC(=O)[C@H](Cc2ccccc2)NC1=O = 90.2
CC(=O)N(CCCNC[C@@H]1C[C@@H]2c3cccc4[nH]cc(c34)C[C@H]2N(C)C1)[C@@H]1CCCCNC(=O)[C@H](Cc2ccc(F)cc2)NC(=O)[C@H]([C@@H](C)O)NC(=O)[C@H](CCCCN)NC(=O)[C@@H](Cc2c[nH]c3ccccc23)NC(=O)[C@H](Cc2ccccc2)NC(=O)[C@H](Cc2ccccc2)NC(=O)[C@H](CCCNC(=N)N)NC1=O = 99.1
C[C@@H](O)[C@@H]1NC(=O)[C@H](CCCCN)NC(=O)[C@@H](Cc2c[nH]c3ccccc23)NC(=O)[C@H](Cc2ccncc2)NC(=O)[C@H](Cc2ccccc2)NC(=O)[C@H](CCCNC(=N)N)NC(=O)[C@H](NCCSC[C@@H]2C[C@@H]3c4cccc5[nH]cc(c45)C[C@H]3N(C)C2)CCCCNC(=O)[C@H](Cc2ccc(O)cc2)NC1=O = 96.9
C[C@@H](O)[C@@H]1NC(=O)[C@H](CCCCN)NC(=O)[C@@H](Cc2c[nH]c3ccccc23)NC(=O)[C@H](Cc2ccccc2)NC(=O)[C@H](Cc2ccccc2)NC(=O)[C@H](CCCNC(=N)N)NC(=O)[C@H](NC[C@H](Cc2ccc(O)cc2)NC(=O)CSC[C@@H]2C[C@@H]3c4cccc5[nH]cc(c45)C[C@H]3N(C)C2)CCCCNC(=O)[C@H](Cc2ccc(F)cc2)NC1=O = 97
C[C@@H](O)[C@@H]1NC(=O)[C@H](CCCCN)NC(=O)[C@@H](Cc2c[nH]c3ccccc23)NC(=O)[C@H](Cc2ccncc2)NC(=O)[C@H](Cc2ccccc2)NC(=O)[C@H](CCCNC(=N)N)NC(=O)[C@H](NC[C@H](Cc2ccc(O)cc2)NC(=O)CSC[C@@H]2C[C@@H]3c4cccc5[nH]cc(c45)C[C@H]3N(C)C2)CCCCNC(=O)[C@H](Cc2ccccc2)NC1=O = 100
C[C@@H](O)[C@@H]1NC(=O)[C@H](CCCCN)NC(=O)[C@@H](Cc2c[nH]c3ccccc23)NC(=O)[C@H](Cc2ccccc2)NC(=O)[C@H](Cc2ccccc2)NC(=O)[C@H](CCCNC(=N)N)NC(=O)[C@H](NC[C@@H](Cc2ccc(O)cc2)NC(=O)CSC[C@@H]2C[C@@H]3c4cccc5[nH]cc(c45)C[C@H]3N(C)C2)CCCCNC(=O)[C@H](Cc2ccccc2)NC1=O = 104
C[C@@H](O)[C@@H]1NC(=O)[C@H](CCCCN)NC(=O)[C@@H](Cc2c[nH]c3ccccc23)NC(=O)[C@H](Cc2ccccc2)NC(=O)[C@H](Cc2ccccc2)NC(=O)[C@H](CCCNC(=N)N)NC(=O)[C@H](N(CCSC[C@@H]2C[C@@H]3c4cccc5[nH]cc(c45)C[C@H]3N(C)C2)CCSC[C@@H]2C[C@@H]3c4cccc5[nH]cc(c45)C[C@H]3N(C)C2)CCCCNC(=O)[C@H](Cc2ccccc2)NC1=O [Compound 40] (RFF[dW]KTF; linker N-C via X1) = 95
C[C@@H](O)[C@@H]1NC(=O)[C@H](CCCCN)NC(=O)[C@@H](Cc2c[nH]c3ccccc23)NC(=O)[C@H](Cc2ccccc2)NC(=O)[C@H](Cc2ccccc2)NC(=O)[C@H](CCCNC(=N)N)NC(=O)[C@H](NCCS(=O)(=O)C[C@@H]2C[C@@H]3c4cccc5[nH]cc(c45)C[C@H]3N(C)C2)CCCCNC(=O)[C@H](Cc2ccc(F)cc2)NC1=O = 84.8
CC(=O)N(CCC(=O)NC(CN[C@@H]1CCCCNC(=O)[C@H](Cc2ccc(F)cc2)NC(=O)[C@H]([C@@H](C)O)NC(=O)[C@H](CCCCN)NC(=O)[C@@H](Cc2c[nH]c3ccccc23)NC(=O)[C@H](Cc2ccccc2)NC(=O)[C@H](Cc2ccccc2)NC(=O)[C@H](CCCNC(=N)N)NC1=O)Cc1ccc(O)cc1)C[C@@H]1C[C@@H]2c3cccc4[nH]cc(c34)C[C@H]2N(C)C1 (single isomer, unassigned) = 95.9

Now, please, on to the next compound.
Lookup result for C[C@@H](O)[C@@H]1NC(=O)[C@H](CCCCN)NC(=O)[C@@H](Cc2c[nH]c3ccccc23)NC(=O)[C@H](Cc2ccccc2)NC(=O)[C@H](Cc2ccccc2)NC(=O)[C@H](CCCNC(=N)N)NC(=O)[C@H](NCCSC[C@@H]2C[C@@H]3c4cccc5[nH]cc(c45)C[C@H]3N(C)C2)CCCCNC(=O)[C@H](Cc2cccc(F)c2)NC1=O ; measured Emax: 97.7
